src = ChEMBL document CHEMBL1129642

- assayed_system: Penicillin-binding protein 2b (Staphylococcus aureus, UniProt Q9XDB3)
- Sequence (Q9XDB3 whole entry): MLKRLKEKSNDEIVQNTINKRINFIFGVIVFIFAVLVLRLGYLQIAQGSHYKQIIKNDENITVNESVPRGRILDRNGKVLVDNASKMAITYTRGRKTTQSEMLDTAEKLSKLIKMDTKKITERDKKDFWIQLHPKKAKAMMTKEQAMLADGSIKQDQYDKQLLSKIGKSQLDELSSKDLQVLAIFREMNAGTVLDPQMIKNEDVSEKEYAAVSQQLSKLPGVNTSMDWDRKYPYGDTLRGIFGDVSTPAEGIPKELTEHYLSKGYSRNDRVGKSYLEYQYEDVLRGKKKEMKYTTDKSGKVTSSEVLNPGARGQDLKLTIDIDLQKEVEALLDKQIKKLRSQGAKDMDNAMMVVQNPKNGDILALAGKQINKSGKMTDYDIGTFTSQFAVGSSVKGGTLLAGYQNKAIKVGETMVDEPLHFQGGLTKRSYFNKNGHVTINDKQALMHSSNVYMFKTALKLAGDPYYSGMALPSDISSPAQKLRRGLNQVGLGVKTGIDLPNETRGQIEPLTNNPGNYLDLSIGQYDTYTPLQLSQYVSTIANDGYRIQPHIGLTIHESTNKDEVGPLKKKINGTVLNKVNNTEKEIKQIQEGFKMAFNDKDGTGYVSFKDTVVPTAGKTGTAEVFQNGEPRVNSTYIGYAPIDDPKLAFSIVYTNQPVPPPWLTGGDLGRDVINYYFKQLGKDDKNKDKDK
readout_label: IC50 (µM)
Give bare numbers, in µM.

[Q] Specify IC50 for C[C@]1(C=CC#N)[C@H](C(=O)O)N2C(=O)C[C@H]2S1(=O)=O and stop.
[A] 170

###

- assayed_system: Beta-lactamase TEM (Escherichia coli, UniProt P62593)
- Sequence (P62593 whole entry): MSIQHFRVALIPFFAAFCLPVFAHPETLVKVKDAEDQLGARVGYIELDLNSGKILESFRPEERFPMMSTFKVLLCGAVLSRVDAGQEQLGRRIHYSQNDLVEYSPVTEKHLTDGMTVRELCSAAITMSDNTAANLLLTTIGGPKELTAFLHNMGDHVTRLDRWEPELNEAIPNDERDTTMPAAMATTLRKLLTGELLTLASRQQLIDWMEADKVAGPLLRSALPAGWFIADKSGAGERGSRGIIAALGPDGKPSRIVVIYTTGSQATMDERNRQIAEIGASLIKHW
- test_name: Compound was tested for inhibition of Beta-lactamase from RTEM-2
readout_label: IC50 (nM)
Give bare numbers, in nM.

[Q] Print Beta-lactamase TEM (Escherichia coli, UniProt P62593) IC50 for C[C@]1(C=CC#N)[C@H](C(=O)O)N2C(=O)C[C@H]2S1(=O)=O [Ro-481220] .
[A] 980

###

- assayed_system: Beta-lactamase (Staphylococcus aureus)
- Sequence (P00807 whole entry): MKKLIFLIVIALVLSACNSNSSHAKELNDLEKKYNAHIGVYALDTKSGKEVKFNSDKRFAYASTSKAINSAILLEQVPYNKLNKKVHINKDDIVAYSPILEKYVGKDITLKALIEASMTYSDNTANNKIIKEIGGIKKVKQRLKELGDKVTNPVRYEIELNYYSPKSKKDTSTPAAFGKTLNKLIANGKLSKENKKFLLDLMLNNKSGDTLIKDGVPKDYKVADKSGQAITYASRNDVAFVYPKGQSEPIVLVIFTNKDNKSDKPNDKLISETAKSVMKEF
- test_name: Compound was tested for inhibition of Beta-lactamase from Staphylococcus aureus PCI
readout_label: pIC50
Answers are plain numbers, as −log10 of the molar value.

[Q] Specify pIC50 for C[C@]1(C=CC#N)[C@H](C(=O)O)N2C(=O)C[C@H]2S1(=O)=O and stop.
[A] 6.60

###

- assayed_system: Beta-lactamase (Bacillus licheniformis, UniProt P00808)
- Sequence (P00808 whole entry): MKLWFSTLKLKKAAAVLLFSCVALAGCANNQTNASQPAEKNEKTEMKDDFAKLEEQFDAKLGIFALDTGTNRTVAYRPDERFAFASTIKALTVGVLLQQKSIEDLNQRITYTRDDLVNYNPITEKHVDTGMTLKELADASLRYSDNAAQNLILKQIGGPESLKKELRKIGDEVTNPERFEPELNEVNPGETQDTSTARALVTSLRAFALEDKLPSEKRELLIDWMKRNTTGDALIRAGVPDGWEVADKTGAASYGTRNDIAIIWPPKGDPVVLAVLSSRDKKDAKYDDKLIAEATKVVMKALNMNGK
- test_name: Compound was tested for inhibition of Bacillus licheniformis 749/C, class A of Beta-lactamase
readout_label: IC50

Worked cases, IC50 given:
[Q] Specify IC50 for C[C@]1(/C=C\c2ccccn2)[C@H](C(=O)[O-])N2C(=O)C[C@H]2S1(=O)=O.[Na+] and stop.
[A] 2300 nM

[Q] Specify IC50 for C[C@]1(/C=C/c2cncs2)[C@H](C(=O)O)N2C(=O)C[C@H]2S1(=O)=O and stop.
[A] 5400 nM

[Q] Specify IC50 for CCOC(=O)/C=C\[C@@]1(C)[C@H](C(=O)O)N2C(=O)C[C@H]2S1(=O)=O and stop.
[A] 2900 nM

[Q] Specify IC50 for C[C@]1(/C=C/C[n+]2ccccc2)[C@H](C(=O)O)N2C(=O)C[C@H]2S1(=O)=O and stop.
[A] 1800 nM

Others:
[Q] Specify IC50 for C[C@]1(/C=C\c2cncs2)[C@H](C(=O)[O-])N2C(=O)C[C@H]2S1(=O)=O.[Na+] and stop.
[A] 540 nM
